Items are presented alongside their recorded log10 of CC50.
- Assay text: Cytotoxicity against Homo sapiens (human) MT4 cells
- Format: cell-based
# log10 transformed; quantity=CC50; unit=mg/L

(Q) Any idea what log10 of CC50 was measured for CC(Cl)C(=O)NNC(=O)c1ccncc1 (stereo not given) ?
(A) 1.89

(Q) Repeat with "Cc1ccc(/C=N/N(C(=O)c2ccccc2)C(=O)c2ccncc2)cc1"
(A) 1.62

(Q) Repeat with "O=C(N/N=C/c1c(O)ccc2ccccc12)c1ccncc1"
(A) -1.00

(Q) Repeat with "COc1cc(/C=N/NC(=O)c2ccncc2)cc(OC)c1OC"
(A) 2.04

(Q) Repeat with "COc1cccc(OC)c1/C=N/NC(=O)c1ccncc1"
(A) 0.95

(Q) Repeat with "COc1cc(/C=N/N(C(=O)c2ccccc2)C(=O)c2ccncc2)ccc1O"
(A) 2.02

(Q) Repeat with "CSc1ccc(/C=N/N(C(=O)c2ccccc2)C(=O)c2ccncc2)cc1"
(A) 1.84

(Q) Repeat with "O=C(N/N=C/c1c[nH]c2ccccc12)c1ccncc1"
(A) 1.98

----------
Items are presented alongside their recorded EC50.
- Test system: Human respirovirus 3
- Assay text: Antiviral activity against Human parainfluenza virus 3 infected Vero cells assessed as inhibition of virus-induced cytopathicity
- Type: functional, organism-based
- Settings: Human respirovirus 3, Vero

(Q) Any idea what EC50 was measured for "CSc1ccc(/C=N/NC(=O)c2ccncc2)cc1" ?
(A) > 100 µg/mL

(Q) Repeat with "O=C(N/N=C/c1c[nH]c2ccccc12)c1ccncc1"
(A) > 100 µg/mL

(Q) Repeat with "CSc1ccc(/C=N/N(C(=O)c2ccccc2)C(=O)c2ccncc2)cc1"
(A) > 100 µg/mL

(Q) Repeat with "COc1cccc(OC)c1/C=N/N(C(=O)c1ccccc1)C(=O)c1ccncc1"
(A) > 20 µg/mL

(Q) Repeat with "Cc1ccc(/C=N/NC(=O)c2ccncc2)cc1"
(A) > 20 µg/mL

(Q) Repeat with "COc1cc(/C=N/N(C(=O)c2ccccc2)C(=O)c2ccncc2)ccc1O"
(A) > 100 µg/mL

(Q) Repeat with "COc1cc(/C=N/NC(=O)c2ccncc2)cc(OC)c1OC"
(A) > 100 µg/mL

(Q) Repeat with "CCOc1cc(/C=N/N(C(=O)c2ccccc2)C(=O)c2ccncc2)ccc1O"
(A) > 100 µg/mL

(Q) Repeat with "C/C=C/C=N/NC(=O)c1ccncc1"
(A) > 20 µg/mL

(Q) Repeat with COc1cc(/C=N/NC(=O)c2ccncc2)ccc1O [FTIVAZIDE]
(A) > 100 µg/mL

----------
- Assay text: Cytotoxicity against Homo sapiens (human) HeLa cells
- Format: cell-based
Observable: MCC

Take a look at these entries with their results.
[[record]]
structure_smiles_string = "COc1cc(/C=N/NC(=O)c2ccncc2)cc(OC)c1OC"
reported_measurement = "≥ 100 µg/mL"

[[record]]
structure_smiles_string = "CCOc1cc(/C=N/N(C(=O)c2ccccc2)C(=O)c2ccncc2)ccc1O"
reported_measurement = "> 100 µg/mL"

[[record]]
structure_smiles_string = "CSc1ccc(/C=N/N(C(=O)c2ccccc2)C(=O)c2ccncc2)cc1"
reported_measurement = "> 100 µg/mL"

[[record]]
structure_smiles_string = "CCOc1cc(/C=N/NC(=O)c2ccncc2)ccc1O"
reported_measurement = "> 100 µg/mL"


Lab note: next compound to report on.
(Q) Any idea what MCC was measured for "O=C(N/N=C/c1c[nH]c2ccccc12)c1ccncc1" ?
(A) ≥ 100 µg/mL

Each recorded value in this set is attributed to ChEMBL document CHEMBL3046007.
